Origin of the recorded values: patent US20260234157A1

Measured inhibition at 0.1 µM values are reported for all entries that follow.
- assay system: AR protein (Homo sapiens, UniProt P10275)
- Construct: degradation activity of the compounds disclosed in the present disclosure on AR protein in VCaP cells; host or cells: VCaP
- run description: Degradation of AR protein in VCaP cells (Western blot)
- Assay type: cell-based
- run parameters: compound at 100 nM, 8 hours, read-out: Degradation rate of the AR protein in VCaP cells, 100 nM (%)
The number alone won't do; follow it with the unit.

# molecule, inhibition at 0.1 µM
data = [
    ("N#Cc1ccc(O[C@H]2CC[C@H](NC(=O)c3ccc(N4CCC5(CCC(N6CCC7(CCc8cc9c(cc8O7)C(=O)N(C7CCC(=O)NC7=O)C9=O)CC6)CC5)C4)nn3)CC2)cc1Cl (some centres unmarked)", "51%"),
]

Item COc1cc(O[C@H]2C(C)(C)[C@H](NC(=O)c3ccc(N4CCC(C)(CN5CCC6(CCc7cc8c(cc7O6)C(=O)N(C6CCC(=O)NC6=O)C8)CC5)CC4)cc3)C2(C)C)ccc1C#N (some centres unmarked) was tested on AR protein (Homo sapiens, UniProt P10275); the reported inhibition at 0.1 µM is 69%

Record N#Cc1ccc(O[C@H]2CC[C@H](NC(=O)c3ccc(N4CCC5(CC4)CC(N4CCC6(CCc7ccc8c(c7O6)CN(C6CCC(=O)NC6=O)C8=O)CC4)C5)nn3)CC2)cc1Cl (some centres unmarked) / AR protein (Homo sapiens, UniProt P10275), inhibition at 0.1 µM recorded as 86%

Log: AR protein (Homo sapiens, UniProt P10275), molecule COc1cc(O[C@H]2C(C)(C)[C@H](NC(=O)c3ccc(N4CCC(F)(CN5CCC6(CCc7cc8c(cc7O6)C(=O)N(C6CCC(=O)NC6=O)C8=O)CC5)CC4)cc3)C2(C)C)ccc1C#N (some centres unmarked) , inhibition at 0.1 µM = 28%

Form: item N#Cc1ccc(O[C@H]2CC[C@H](NC(=O)c3ccc(N4CCC5(CC4)COc4c5ccc5c4CN(C4CCC(=O)NC4=O)C5=O)nn3)CC2)cc1Cl (some centres unmarked) ; test system AR protein (Homo sapiens, UniProt P10275); inhibition at 0.1 µM: 57%

###

- assay system: AR protein (Homo sapiens, UniProt P10275, T878A)
- Construct: degradation activity of the compounds disclosed in the present disclosure on AR protein in LNCaP cells; host or cells: LNCaP FGC
- run description: Degradation of AR protein in LNCaP cells (Western blot)
- Type: cell-based
- run parameters: LNCaP cells, compound 10 nM, 8 hours, Western blot grayscale, GAPDH internal reference; read-out: Degradation rates of the AR protein in LNCaP cells, 10 nM (%)
Classify by measured inhibition at 0.01 µM: YES if it is equal to or exceeds 40%, NO if it is smaller.

### Prompt Hello, I need to know if CC1(CN2CCC3(CCc4cc5c(cc4O3)C(=O)N(C3CCC(=O)NC3=O)C5=O)CC2)CCN(c2ccc(C(=O)N[C@H]3CC[C@H](Oc4ccc(C#N)c(Cl)c4)CC3)nn2)CC1 (some centres unmarked) [Compound 17] has measured inhibition at 0.01 µM not below 40%. Thanks!
### Response NO

### Prompt Has N#Cc1ccc(O[C@H]2CC[C@H](NC(=O)c3ccc(N4CC[C@@H](CN5CCC6(CC5)COc5cc7c(cc56)C(=O)N(C5CCC(=O)NC5=O)C7=O)C4)nn3)CC2)cc1Cl (some centres unmarked) [Compound 57] a recorded inhibition at 0.01 µM greater than or equal to 40%?
### Response YES

### Prompt Would you say COc1cc(O[C@H]2C(C)(C)[C@H](NC(=O)c3ccc(N4CCC(C)(CN5CCC6(CC5)COc5cc7c(cc56)C(=O)N(C5CCC(=O)NC5=O)C7=O)CC4)cc3)C2(C)C)ccc1C#N (some centres unmarked) [Compound 288] shows inhibition at 0.01 µM at minimum 40%?
### Response NO

### Prompt Would you say COc1cc(O[C@H]2C(C)(C)[C@H](NC(=O)c3ccc(N4CCC(CN5CCC6(CC5)COc5c6ccc6c5CN(C5CCC(=O)NC5=O)C6=O)(OC)CC4)cc3)C2(C)C)ccc1C#N (some centres unmarked) [Compound 217] shows inhibition at 0.01 µM at minimum 40%?
### Response NO

###

- assay system: AR protein (Homo sapiens, UniProt P10275, T878A)
- Construct: degradation activity of the compounds disclosed in the present disclosure on AR protein in LNCaP cells; host or cells: LNCaP FGC
- run description: Degradation of AR protein in LNCaP cells (Western blot)
- Type: cell-based
- run parameters: LNCaP cells, compound 10 nM, 8 hours, Western blot grayscale, GAPDH internal reference; read-out: Degradation rates of the AR protein in LNCaP cells, 10 nM (%)
Reported inhibition at 0.01 µM is given for each of the following compounds.
Enter your answer as a number in %; do not include the unit.

Previously resolved entries follow.
# compound, attribute measured, test value
measured = [
    ("COC1(CN2CCC3(CC2)COc2cc4c(cc2C3)C(=O)N(C2CCC(=O)NC2=O)C4=O)CCN(c2ccc(C(=O)NC3CCC(Oc4ccc(C#N)c(Cl)c4)CC3)nn2)CC1 (stereo not drawn)", "inhibition at 0.01 µM", 26),
    ("CCC1(CN2CCC3(CC2)COc2c3ccc3c2C(=O)N(C2CCC(=O)NC2=O)C3=O)CCN(c2ccc(C(=O)N[C@H]3CC[C@H](Oc4ccc(C#N)c(OC)c4)CC3)nn2)CC1 (stereo partly drawn)", "inhibition at 0.01 µM", -14),
    ("COc1cc(O[C@H]2CC[C@H](NC(=O)c3ccc(N4CC(CN5CCC6(CC5)COc5c6ccc6c5C(=O)N(C5CCC(=O)NC5=O)C6=O)C4)nn3)CC2)ccc1C#N (stereo partly drawn)", "inhibition at 0.01 µM", 45),
    ("N#Cc1ccc(O[C@H]2CC[C@H](NC(=O)c3ccc(N4CCC5(CCC(C(=O)N6CCC7(CC6)COc6c7ccc7c6CN(C6CCC(=O)NC6=O)C7=O)CC5)CC4)nn3)CC2)cc1Cl (stereo partly drawn)", "inhibition at 0.01 µM", 37),
    ("CCC1(CN2CCC3(CC2)COc2c3ccc3c2CN(C2CCC(=O)NC2=O)C3=O)CCN(c2ccc(C(=O)N[C@H]3CC[C@H](Oc4ccc(C#N)c(Cl)c4)CC3)nn2)CC1 (stereo partly drawn)", "inhibition at 0.01 µM", 44),
    ("N#Cc1ccc(O[C@H]2CC[C@H](NC(=O)c3cnc(N4CCC5(CC4)COc4c5ccc5c4CN(C4CCC(=O)NC4=O)C5=O)nc3)CC2)cc1Cl (stereo partly drawn)", "inhibition at 0.01 µM", 6),
]

Item: N#Cc1ccc(O[C@H]2CC[C@H](NC(=O)c3ccc(N4CCC(CN5CCC6(CC5)COc5cc7c(cc5O6)CN(C5CCC(=O)NC5=O)C7=O)CC4)nn3)CC2)cc1Cl (stereo partly drawn) | System: AR protein (Homo sapiens, UniProt P10275, T878A) | inhibition at 0.01 µM: 74

With AR protein (Homo sapiens, UniProt P10275, T878A) as the test system, N#Cc1ccc(O[C@H]2CC[C@H](NC(=O)c3ccc(N4CCC5(CC4)COc4cc6c(cc4O5)C(=O)N(C4CCC(=O)NC4=O)C6=O)nn3)CC2)cc1Cl (stereo partly drawn) showed inhibition at 0.01 µM of 41

The compound COc1cc(O[C@H]2CC[C@H](NC(=O)c3ccc(N4CCC(F)(CN5CC6(CCc7cc8c(cc7O6)CN(C6CCC(=O)NC6=O)C8=O)C5)CC4)nn3)CC2)ccc1C#N (stereo partly drawn) , tested on AR protein (Homo sapiens, UniProt P10275, T878A), showed inhibition at 0.01 µM of 49

AR protein (Homo sapiens, UniProt P10275, T878A) inhibition at 0.01 µM of CC1(C)[C@H](NC(=O)c2ccc(N3CCC(C#N)(CN4CCC5(CC4)COc4c5ccc5c4CN(C4CCC(=O)NC4=O)C5=O)CC3)nn2)C(C)(C)[C@H]1Oc1ccc(C#N)c(Cl)c1 (stereo partly drawn) is -35

// assay AR protein (Homo sapiens, UniProt P10275, T878A), entry N#Cc1ccc(O[C@H]2CC[C@H](NC(=O)c3ccc(N4CCC(F)(CN5CCC6(CC5)COc5ccc7c(c5C6)C(=O)N(C5CCC(=O)NC5=O)C7)CC4)nn3)CC2)cc1Cl (stereo partly drawn) , inhibition at 0.01 µM value = -3

###

- assay system: AR protein (Homo sapiens, UniProt P10275, T878A)
- Construct: degradation activity of the compounds disclosed in the present disclosure on AR protein in LNCaP cells; host or cells: LNCaP FGC
- Sequence (P10275 1-920 T878A): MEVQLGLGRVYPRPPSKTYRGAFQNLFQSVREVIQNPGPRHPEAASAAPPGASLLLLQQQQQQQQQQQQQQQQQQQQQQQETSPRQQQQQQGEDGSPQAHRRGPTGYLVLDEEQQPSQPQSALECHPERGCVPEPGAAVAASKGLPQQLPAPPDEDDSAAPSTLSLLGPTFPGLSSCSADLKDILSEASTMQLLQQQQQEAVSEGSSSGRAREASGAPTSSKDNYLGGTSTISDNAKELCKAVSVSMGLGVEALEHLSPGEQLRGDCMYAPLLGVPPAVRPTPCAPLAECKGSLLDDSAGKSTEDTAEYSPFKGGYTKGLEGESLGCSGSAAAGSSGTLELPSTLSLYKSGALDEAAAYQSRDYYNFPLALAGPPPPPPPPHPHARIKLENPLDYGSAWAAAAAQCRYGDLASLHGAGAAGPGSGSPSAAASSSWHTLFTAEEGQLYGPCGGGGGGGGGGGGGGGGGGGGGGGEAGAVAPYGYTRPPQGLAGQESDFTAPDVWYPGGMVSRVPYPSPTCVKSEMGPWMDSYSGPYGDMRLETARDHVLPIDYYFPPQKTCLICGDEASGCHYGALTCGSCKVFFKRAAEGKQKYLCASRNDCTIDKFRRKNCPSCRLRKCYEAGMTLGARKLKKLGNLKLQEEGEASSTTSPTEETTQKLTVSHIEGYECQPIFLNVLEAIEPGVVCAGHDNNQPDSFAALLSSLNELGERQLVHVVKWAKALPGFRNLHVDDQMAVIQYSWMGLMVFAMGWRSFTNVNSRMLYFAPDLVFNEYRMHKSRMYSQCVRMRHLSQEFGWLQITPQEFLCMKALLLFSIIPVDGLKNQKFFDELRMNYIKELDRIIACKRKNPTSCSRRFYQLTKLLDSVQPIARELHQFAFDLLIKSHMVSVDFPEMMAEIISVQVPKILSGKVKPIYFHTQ
- run description: Degradation of AR protein in LNCaP cells (Western blot)
- Assay type: cell-based
- run parameters: LNCaP cells, compound 10 nM, 8 hours, Western blot grayscale, GAPDH internal reference; read-out: Degradation rates of the AR protein in LNCaP cells, 10 nM (%)
attribute measured: inhibition at 0.01 µM (%)
Lab book: enter the figure in %, no units written.

Examples from the recorded data:
# compound, assay system, inhibition at 0.01 µM / %
measured = [
    ("N#Cc1ccc(O[C@H]2CC[C@H](NC(=O)c3ccc(N4CC5(CCC(C(=O)N6CCC7(CC6)COc6c7ccc7c6CN(C6CCC(=O)NC6=O)C7=O)CC5)C4)nn3)CC2)cc1Cl (some centres unmarked)", "AR protein (Homo sapiens, UniProt P10275, T878A)", 55),
    ("N#Cc1ccc(O[C@H]2CC[C@H](NC(=O)c3ccc(N4CC(CN5CCC6(CC5)COc5cc7c(cc56)C(=O)N(C5CCC(=O)NC5=O)C7=O)C4)nn3)CC2)cc1Cl (some centres unmarked)", "AR protein (Homo sapiens, UniProt P10275, T878A)", 44),
    ("N#Cc1ccc(OC2CCC(NC(=O)c3ccc(N4CC5(CC(N6CCC7(CC6)COc6cc8c(cc6C7)C(=O)N(C6CCC(=O)NC6=O)C8=O)C5)C4)nn3)CC2)cc1Cl (centres unmarked)", "AR protein (Homo sapiens, UniProt P10275, T878A)", 72),
    ("N#Cc1ccc(O[C@H]2CC[C@H](NC(=O)c3cnc(N4CCC(F)(CN5CCC6(CC5)COc5c6ccc6c5CN(C5CCC(=O)NC5=O)C6=O)CC4)cn3)CC2)cc1Cl (some centres unmarked)", "AR protein (Homo sapiens, UniProt P10275, T878A)", 51),
]

As a next step, examine the compound that follows.
N#Cc1ccc(O[C@H]2CC[C@H](NC(=O)c3ccc(N4CCC(C#N)(CN5CCC6(CC5)COc5c6ccc6c5C(=O)N(C5CCC(=O)NC5=O)C6=O)CC4)nn3)CC2)cc1Cl (some centres unmarked) yielded inhibition at 0.01 µM of 45
